study-target: human URAT1 (Homo sapiens, UniProt Q96S37)
Sequence (Q96S37 whole entry): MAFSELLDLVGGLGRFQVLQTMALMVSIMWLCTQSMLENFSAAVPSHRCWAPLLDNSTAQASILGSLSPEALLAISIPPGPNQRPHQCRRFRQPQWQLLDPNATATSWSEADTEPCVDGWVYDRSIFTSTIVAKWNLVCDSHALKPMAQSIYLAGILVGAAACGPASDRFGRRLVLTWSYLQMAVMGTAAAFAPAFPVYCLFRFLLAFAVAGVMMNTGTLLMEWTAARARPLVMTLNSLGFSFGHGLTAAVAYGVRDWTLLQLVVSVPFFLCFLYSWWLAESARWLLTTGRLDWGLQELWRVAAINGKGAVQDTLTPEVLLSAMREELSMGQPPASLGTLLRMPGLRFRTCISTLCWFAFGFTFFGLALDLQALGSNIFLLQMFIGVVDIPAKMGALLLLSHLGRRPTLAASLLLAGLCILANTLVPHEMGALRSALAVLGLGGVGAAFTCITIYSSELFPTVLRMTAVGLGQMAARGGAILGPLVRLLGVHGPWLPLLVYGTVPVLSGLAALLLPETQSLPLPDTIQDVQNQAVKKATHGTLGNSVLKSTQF
method-notes: In vitro URAT1 inhibitory assay (14C-uric acid uptake in HEK293T cells expressing human URAT1)
condition-details: HEK293-URAT1 cells, 14C-labeled uric acid substrate
Rule: IC50 below 2000 nM gives label 1, anything at or above gives label 0.

                            structure_string                              study_target  label_class
 0  O=C(NS(=O)(=O)c1ccc(Br)cc1)c1ccccc1-c1ccccc1-c1nc(-c2ccncc2Cl)no1  human URAT1 (Homo sapiens, UniProt Q96S37)      label 1
 1  O=C(O)c1ccccc1-c1ccccc1C(=O)N1CCCc2ccccc21  human URAT1 (Homo sapiens, UniProt Q96S37)      label 1
 2  O=C(O)c1ccccc1-c1ccccc1-c1nc(-c2ccnc(Br)c2)no1  human URAT1 (Homo sapiens, UniProt Q96S37)      label 1
 3  Cc1ccc2c(c1)CCCN2C(=O)c1ccccc1-c1ccccc1C(=O)O  human URAT1 (Homo sapiens, UniProt Q96S37)      label 0
 4  COc1ccc2c(c1)CCCN2C(=O)c1ccccc1-c1ccccc1C(=O)O  human URAT1 (Homo sapiens, UniProt Q96S37)      label 1
 5  O=C(O)c1ccccc1-c1ccccc1C(=O)N1CCCc2ccc(-c3ccncc3)cc21  human URAT1 (Homo sapiens, UniProt Q96S37)      label 1
 6  O=C(O)c1ccccc1-c1ccccc1C(=O)N1CCCc2ccc(Br)cc21  human URAT1 (Homo sapiens, UniProt Q96S37)      label 1
 7  COc1cc(-c2noc(-c3ccccc3-c3ccccc3C(=O)O)n2)ccn1  human URAT1 (Homo sapiens, UniProt Q96S37)      label 1
 8  O=C(O)c1ccccc1-c1ccccc1-c1nc(-c2ccncc2)no1  human URAT1 (Homo sapiens, UniProt Q96S37)      label 1
 9  O=C(O)c1ccccc1-c1ccccc1-c1nc(-c2ccnc3ccccc23)no1  human URAT1 (Homo sapiens, UniProt Q96S37)      label 1
10  O=C(O)c1ccccc1-c1ccccc1C(=O)N1CCOc2ccccc21  human URAT1 (Homo sapiens, UniProt Q96S37)      label 0
11  O=C(O)c1ccccc1-c1ccccc1C(=O)N1CCCc2ccc(Cl)cc21  human URAT1 (Homo sapiens, UniProt Q96S37)      label 0
12  O=C(O)c1ccccc1-c1ccccc1C(=O)N1CCCc2cc(Br)ccc21  human URAT1 (Homo sapiens, UniProt Q96S37)      label 1
13  O=C(O)c1ccccc1-c1ccccc1-c1nc(-c2cnc3ccccc3c2)no1  human URAT1 (Homo sapiens, UniProt Q96S37)      label 0
14  Cc1cc(-c2noc(-c3ccccc3-c3ccccc3C(=O)O)n2)cc(C)n1  human URAT1 (Homo sapiens, UniProt Q96S37)      label 0
15  O=C(O)c1ccccc1-c1ccccc1-c1nc(-c2ccnc(F)c2)no1  human URAT1 (Homo sapiens, UniProt Q96S37)      label 1
16  Cc1cc(-c2noc(-c3ccccc3-c3ccccc3C(=O)O)n2)ccn1  human URAT1 (Homo sapiens, UniProt Q96S37)      label 1
17  O=C(O)c1ccccc1-c1ccccc1C(=O)N1CCc2ccccc21  human URAT1 (Homo sapiens, UniProt Q96S37)      label 0

###

study-target: human URAT1 (Homo sapiens, UniProt Q96S37)
method-notes: In vitro URAT1 inhibitory assay (14C-uric acid uptake in HEK293T cells expressing human URAT1)
condition-details: HEK293-URAT1 cells, 14C-labeled uric acid substrate
pIC50: −log10 of the molar value.
measure-name: pIC50

>>> df
                           structure_string  measure_name  measurement
0  O=C(O)c1ccccc1-c1ccccc1C(=O)N1CCCc2c(Br)cccc21         pIC50         5.80
1  O=C(O)c1ccccc1-c1ccccc1-c1nc(-c2ccncc2Cl)no1         pIC50         6.77
2  O=C(O)c1ccccc1-c1ccccc1-c1nc(-c2ccnc(Cl)c2)no1         pIC50         6.57

###

study-target: human URAT1 (Homo sapiens, UniProt Q96S37)
Construct: expressed in transfected cells; host or cells: HEK293T cells (ATCC CRL-11268)
method-notes: In vitro URAT1 inhibitory assay (14C-uric acid uptake in HEK293T cells expressing human URAT1)
Format: cell-based
condition-details: HEK-293T; 10 μM compound; mean of three measurements; HEK293-URAT1 cells, 14C-labeled uric acid substrate
Experimental: All the target compounds were evaluated for their URAT1 inhibitory activities in HEK293-URAT1 cells using ^14C-labeled uric acid as the substrate. […] The SAR exploration on series A compounds mainly focused on the hydrophobic component. […] In Vitro URAT1 Inhibitory Assay. […] Finally, the 96-plate was counted in a MicroBeta2 (PerkinElmer). The data were analyzed and IC50 values was calculated with GraphPad Prism 6 software.
measure-name: inhibition at 10 µM

In [3]: df
Out[3]:
                                   compound                              study_target  measurement
0  O=C(O)c1ccccc1-c1cccc(C(=O)N2CCCc3ccccc32)c1 [Compound A21]  human URAT1 (Homo sapiens, UniProt Q96S37)        < 10%
1  O=C(O)c1ccccc1-c1ccccc1-c1nc(-c2ccnc(F)c2)no1 [Compound B17]  human URAT1 (Homo sapiens, UniProt Q96S37)          90%
2  O=C(O)c1ccccc1-c1ccccc1-c1nc(-c2ccncn2)no1 [Compound B11]  human URAT1 (Homo sapiens, UniProt Q96S37)          30%
3  O=C(O)c1ccccc1-c1ccccc1-c1nc(-c2ccnc(Br)c2)no1 [Compound B15]  human URAT1 (Homo sapiens, UniProt Q96S37)          97%
4  COc1ccc(-c2noc(-c3ccccc3-c3ccccc3C(=O)O)n2)cc1 [Compound B5]  human URAT1 (Homo sapiens, UniProt Q96S37)          68%
5  O=C(NS(=O)(=O)c1ccc(Br)cc1)c1ccccc1-c1ccccc1-c1nc(-c2ccncc2Cl)no1 [Compound B27]  human URAT1 (Homo sapiens, UniProt Q96S37)          96%
6  CN(C(=O)c1ccccc1-c1ccccc1C(=O)O)c1ccccc1 [Compound A16]  human URAT1 (Homo sapiens, UniProt Q96S37)          13%
7  O=C(O)c1ccccc1-c1ccc(C(=O)N2CCCc3ccccc32)cc1 [Compound A20]  human URAT1 (Homo sapiens, UniProt Q96S37)        < 10%
8  Cc1cc(-c2noc(-c3ccccc3-c3ccccc3C(=O)O)n2)cc(C)n1 [Compound B20]  human URAT1 (Homo sapiens, UniProt Q96S37)          76%

###

Property: melting point; scope: individual molecules
measure-name: melting point

                           structure_string    measurement
0  COc1ccc(-c2noc(-c3ccccc3-c3ccccc3C(=O)O)n2)c2ccccc12  169 to 171 °C
1    O=C(O)c1ccccc1-c1ccccc1C(=O)NCc1ccncc1  118 to 120 °C
2  O=C(O)c1ccccc1-c1ccccc1-c1nc(-c2cccc(Br)c2)no1  119 to 121 °C
3  O=C(NS(=O)(=O)c1ccc(Br)cc1)c1ccccc1-c1ccccc1-c1nc(-c2ccncc2Cl)no1  188 to 190 °C

###

study-target: human URAT1 (Homo sapiens, UniProt Q96S37)
Construct: expressed in transfected cells; host or cells: HEK293T cells (ATCC CRL-11268)
method-notes: In vitro URAT1 inhibitory assay (14C-uric acid uptake in HEK293T cells expressing human URAT1)
Assay type: cell-based
condition-details: HEK-293T; 10 μM compound; mean of three measurements; HEK293-URAT1 cells, 14C-labeled uric acid substrate
Each item that follows carries a reported inhibition at 10 µM.
measure-name: inhibition at 10 µM (%)

>>> print(df.to_string())
                                   molecule  measurement
0  O=C(O)c1ccccc1-c1ccccc1C(=O)N1CCc2ccccc2C1 [Compound A15]           25
1  O=C(O)c1ccccc1-c1ccccc1-c1nc(-c2ccco2)no1 [Compound B8]           56
2  O=C(O)c1ccccc1-c1ccccc1C(=O)N1CCCc2c(Br)cccc21 [Compound A8]           90
3  O=C(O)c1ccccc1-c1ccccc1-c1nc(-c2ccsc2)no1 [Compound B10]           69
4  O=C(O)c1ccccc1-c1ccccc1-c1nc(-c2cccs2)no1 [Compound B9]           68

###

Quick reference for melting point among some compounds
measure-name: melting point

In [3]: df
Out[3]:
                            structure_string    measurement
 0  O=C(O)c1ccccc1-c1ccccc1-c1nc(-c2ccnc(F)c2)no1   98 to 100 °C
 1  O=C(O)c1ccccc1-c1ccccc1-c1nc(-c2cccs2)no1  140 to 142 °C
 2  O=C(O)c1ccccc1-c1ccccc1-c1nc(-c2ccncc2)no1  188 to 191 °C
 3  O=C(O)c1ccccc1-c1ccc(C(=O)N2CCCc3ccccc32)cc1  165 to 167 °C
 4  O=C(O)c1ccccc1-c1ccccc1-c1nc(-c2ccc(C(F)(F)F)cc2)no1  173 to 175 °C
 5  O=C(O)c1ccccc1-c1cccc(C(=O)N2CCCc3ccccc32)c1  100 to 102 °C
 6  O=C(O)c1ccccc1-c1ccccc1-c1nc(-c2ccc3ncccc3c2)no1  264 to 266 °C
 7  O=C(O)c1ccccc1-c1ccccc1-c1nc(-c2ccccn2)no1  190 to 193 °C
 8  COc1ccc(-c2noc(-c3ccccc3-c3ccccc3C(=O)O)n2)cc1  154 to 157 °C
 9  O=C(O)c1ccccc1-c1ccccc1-c1nc(-c2cnc3ccccc3c2)no1  236 to 238 °C
10  O=C(O)c1ccccc1-c1ccccc1C(=O)N1CCCc2ccc(Cl)cc21  233 to 234 °C
11  O=C(O)c1ccccc1-c1ccccc1-c1nc(-c2ccc(Cl)cc2)no1  154 to 156 °C
12  O=C(O)CCNC(=O)c1ccccc1-c1ccccc1-c1nc(-c2ccncc2Cl)no1  240 to 242 °C
13  CN(C(=O)c1ccccc1-c1ccccc1C(=O)O)c1ccccc1  169 to 172 °C
14  O=C(O)c1ccccc1-c1ccccc1-c1nc(-c2ccncn2)no1  167 to 169 °C
15  O=C(O)c1ccccc1-c1ccccc1-c1nc(-c2cccnc2)no1  210 to 212 °C
16  O=C(O)c1ccccc1-c1ccccc1C(=O)N1CCc2ccccc2C1  171 to 173 °C
17  O=C(O)c1ccccc1-c1ccccc1C(=O)N1CCCc2c(Br)cccc21  201 to 202 °C
